Reported growth values are given for each entry in this list.
tested on: HCT-116 colon; test: NCI-60 one-dose screen, 48 h (100 = growth as untreated, 0 = no growth, -100 = all killed); details: 10 µM unless noted
This is part of a sample that, as a whole, favours compounds with a hit. Of some 83,000 tested, about 20% had one in any assay.
Answer format: numeric, % implied, no suffix.

Consider the reported growth for these compounds:
// recorded growth for COc1ccc(-c2nc3sccn3c2/C=C/C(=O)c2cc(OC)c(OC)c(OC)c2)cc1OC : 7.36

// recorded growth for CCOC(=O)c1cnn(CC(O)c2ccc(F)cc2)c1NC(=O)Nc1ccccc1F (configuration not stated) : 89.4

// recorded growth for O=[N+]([O-])c1ccc(C=C2C(Cl)=C(Cl)C(Cl)=C2Cl)cc1 : -11

// recorded growth for O=C(CCc1nnc2sc(/C=C\c3ccccc3)nn12)c1nc2ccccc2[nH]1 : 59.7

// recorded growth for COC(=O)CCC(=O)c1ccccc1 : 108

Others:
// recorded growth for COc1ccc(-c2c3c(N)c4c(nc3nc3c2c(C)nn3-c2ccccc2)CCCC4)cc1 : 31.8

// recorded growth for CS(=O)(=O)Nc1cccc(C(=O)NCc2ccc(N3CCOCC3)cc2)c1 : 101
